# methodSummary: small-molecule binders of probe aNOTCH2, primary screen, biochemical, small-molecule microarray, 635/667 nm fluorescence (AID 1121);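 also: score merges feature fluorescence read at 667 nm with its signal to noise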
# measurementParameters: higher = more signal
Mark F for composite z-score values under -0.02, and T for everything at or above.

Solved cases (4 shown):
# smilesText, group
data = [
    ("CN(C)CCCNC(=O)[C@@H]1c2ccccc2C(=O)N(CC23CC4CC(CC(C4)C2)C3)[C@H]1c1ccc(CO)cc1", "F"),
    ("COc1cc(CO)cc(I)c1O[C@H]1C=C(C(=O)NCCO)C[C@@H](N(CC2CCCCC2)C(=O)c2ccc(C(F)(F)F)cc2)[C@@H]1O", "F"),
    ("O=C(CS)NCCCCCCNC(=O)[C@H]1C[C@H]2C(=O)N[C@@H](Cc3ccccc3)C(=O)N2[C@H]1c1cccc(OCCO)c1", "F"),
    ("C=CCNC(=O)[C@@H]1[C@H]2C(=O)O[C@H](c3ccccc3)[C@H](c3ccccc3)N2[C@H](c2ccc(OCCO)cc2)[C@@]12C(=O)N(C(=O)OCCOC)c1ccc(C#CC3=CCCCC3)cc12", "F"),
]

Does the molecule NC(=O)NCC#Cc1ccc2c(c1)[C@]1(C(=O)N2)[C@H](C(=O)O)[C@H]2C(=O)O[C@H](c3ccccc3)[C@H](c3ccccc3)N2[C@@H]1c1ccccc1OCCO have recorded composite z-score that is -0.02 or more?
T
